# Test system: mammalian protein synthesis
# ASSAY_COMMENT: Selectivity index, ratio of IC50 for inhibition of mammalian protein synthesis in rabbit reticulocyte lysate system incubated for 1 hr by mammalian cell-free transcription-translation assay to IC50 for Inhibition of bacterial protein synthesis in cell-free Escherichia coli
# Type: toxicity
PROPERTY: selectivity ratio at 1 h

C[C@H](NC(=O)[C@@H](NC(=O)[C@@H](N)CCCCN)[C@@H](O)CN)C(=O)NCC(=O)N[C@H](CCCN)C(=O)N1CCC[C@H]1C(=O)N[C@@H](Cc1cnc[nH]1)C(=O)N[C@@H](CCCCN)C(=O)N/C(=C\CCNC(=N)N)C(=O)O | 300

We now examine a further compound.
Exam item: Record request: selectivity ratio at 1 h value, item N=C(N)NCC/C=C(\NC(=O)[C@H](CCCCN)NC(=O)[C@H](Cc1cnc[nH]1)NC(=O)[C@@H]1CCCN1C(=O)[C@@H](CCCN)NC(=O)CNC(=O)[C@@H](NC(=O)[C@@H](NC(=O)[C@@H](N)CCCCN)[C@@H](O)CN)[C@@H](O)CN)C(=O)N[C@@H](CCCCN)C(=O)NCCCCN
Marked response: 16
